Exercise: state measured IC50 for each of the compounds provided.
- Assay target: mouse TRPM3α2 (mTRPM3) ion channel (Mus musculus, UniProt J9SQF3)
- Construct: expressed in transfected cells; host or cells: flip-in HEK293
- Sequence (J9SQF3 1-1709 isoform J9SQF3-12): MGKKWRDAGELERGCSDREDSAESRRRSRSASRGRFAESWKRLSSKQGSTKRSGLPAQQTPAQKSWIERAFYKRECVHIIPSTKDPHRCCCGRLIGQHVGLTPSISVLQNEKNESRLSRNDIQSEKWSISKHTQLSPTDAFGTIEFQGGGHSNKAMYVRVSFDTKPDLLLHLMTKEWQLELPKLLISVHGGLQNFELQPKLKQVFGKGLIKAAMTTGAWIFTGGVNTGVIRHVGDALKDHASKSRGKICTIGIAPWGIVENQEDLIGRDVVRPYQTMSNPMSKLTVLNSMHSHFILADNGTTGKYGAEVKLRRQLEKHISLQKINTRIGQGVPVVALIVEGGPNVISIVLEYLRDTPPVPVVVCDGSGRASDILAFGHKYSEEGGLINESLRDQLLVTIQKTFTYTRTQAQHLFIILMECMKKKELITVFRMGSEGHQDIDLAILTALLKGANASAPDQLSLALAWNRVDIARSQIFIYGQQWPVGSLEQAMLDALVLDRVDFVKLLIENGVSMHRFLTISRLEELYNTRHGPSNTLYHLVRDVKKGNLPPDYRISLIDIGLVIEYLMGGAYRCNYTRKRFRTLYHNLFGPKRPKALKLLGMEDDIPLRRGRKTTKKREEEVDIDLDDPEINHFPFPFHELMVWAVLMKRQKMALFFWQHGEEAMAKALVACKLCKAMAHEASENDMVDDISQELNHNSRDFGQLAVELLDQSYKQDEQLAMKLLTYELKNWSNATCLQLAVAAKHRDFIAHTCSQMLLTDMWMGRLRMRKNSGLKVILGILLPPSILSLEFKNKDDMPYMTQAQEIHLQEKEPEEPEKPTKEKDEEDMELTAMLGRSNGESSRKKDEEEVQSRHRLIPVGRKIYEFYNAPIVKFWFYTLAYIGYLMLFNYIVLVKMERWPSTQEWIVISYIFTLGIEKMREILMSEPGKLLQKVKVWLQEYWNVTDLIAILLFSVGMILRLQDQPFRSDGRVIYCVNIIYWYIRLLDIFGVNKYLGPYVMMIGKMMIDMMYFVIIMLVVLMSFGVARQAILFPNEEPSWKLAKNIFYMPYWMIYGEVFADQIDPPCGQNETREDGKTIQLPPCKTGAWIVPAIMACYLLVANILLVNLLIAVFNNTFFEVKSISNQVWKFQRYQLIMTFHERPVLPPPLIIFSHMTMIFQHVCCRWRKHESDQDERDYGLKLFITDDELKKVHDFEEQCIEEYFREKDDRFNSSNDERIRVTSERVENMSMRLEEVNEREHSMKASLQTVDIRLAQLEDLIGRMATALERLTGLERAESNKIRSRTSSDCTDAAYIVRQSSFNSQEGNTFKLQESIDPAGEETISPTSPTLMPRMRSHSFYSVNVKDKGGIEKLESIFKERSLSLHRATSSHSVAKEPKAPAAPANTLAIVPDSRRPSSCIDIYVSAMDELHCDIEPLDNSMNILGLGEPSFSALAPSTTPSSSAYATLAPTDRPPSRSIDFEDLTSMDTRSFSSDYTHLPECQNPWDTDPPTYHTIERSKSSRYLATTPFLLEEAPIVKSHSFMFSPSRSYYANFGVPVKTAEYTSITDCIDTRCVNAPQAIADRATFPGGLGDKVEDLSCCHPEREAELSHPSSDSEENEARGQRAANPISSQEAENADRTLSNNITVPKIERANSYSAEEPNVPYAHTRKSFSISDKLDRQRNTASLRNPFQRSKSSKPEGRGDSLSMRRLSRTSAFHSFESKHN
- Protocol summary: TRPM3 ion channel driven Ca2+ uptake, Fluo-4 AM assay, mTRPM3alpha2 overexpressing flip-in HEK293 cells stimulated with pregnenolone sulfate (50 μM)
- Format: cell-based
- Settings: mTRPM3 overexpressing HEK293 cells stimulated with pregnenolone sulfate (50 μM), activity ranges A, B, C

Before answering, review these 3 worked examples.
Compound	IC50
Cn1nc2ccc(OCc3ccccn3)cc2c1C(=O)NC(CO)Cc1ccccn1 (single isomer, unassigned) [Cpd 252 - En2]	> 20 µM
Cn1nc2ccc(OCc3ccccn3)cc2c1C(=O)NC1(CC(F)F)CCCNC1 (single isomer, unassigned) [Cpd 248 - En1]	> 20 µM
Cn1nc2ccc(OCc3ccccn3)cc2c1C(=O)NC(CO)c1nccn1C1CC1 (single isomer, unassigned) [Cpd 238 - En2]	1 to 20 µM

Hi, could you look up IC50 for each item in my list?
1. C[C@@H](NC(=O)c1c2cc(OCC3CC3)ccc2nn1C)C(N)=O [Cpd 121]
2. Cc1nc(COc2ccc3nn(C)c(C(=O)NC(C)(CO)C(N)=O)c3c2)cs1 (single isomer, unassigned) [Cpd 160 - En2]
3. Cn1nc2ccc(OCc3ccccn3)cc2c1C(=O)NC1CCNCC1(F)F (single isomer, unassigned) [Cpd 128 - En1]
4. Cn1nc2ccc(OCc3ccccn3)cc2c1C(=O)NC(CO)CC(F)(F)F (single isomer, unassigned) [Cpd 226-En2]

Result:
1: < 1 µM; 2: < 1 µM; 3: 1 to 20 µM; 4: > 20 µM

---

- Assay target: UniProtKB J9SQF3
- Protocol summary: TRPM3 ion channel driven Ca2+ uptake, Fluo-4 AM assay, mTRPM3alpha2 overexpressing flip-in HEK293 cells stimulated with pregnenolone sulfate (50 μM)
- Settings: mTRPM3 overexpressing HEK293 cells stimulated with pregnenolone sulfate (50 μM), activity ranges A, B, C
Experimental endpoint: IC50

// below: answered compounds
Compound	Assay target	IC50
CN(C)C(=O)C1(NC(=O)c2c3cc(OCc4cccnc4C(F)(F)F)ccc3nn2C)CCOC1 (single isomer, unassigned) [Cpd 186 - En1]	UniProtKB J9SQF3	1 to 20 µM
Cn1nc2ccc(OCc3ccccc3F)cc2c1C(=O)NC(C)(CO)CC(F)F (single isomer, unassigned) [Cpd 203 - En2]	UniProtKB J9SQF3	< 1 µM

Could you now consider this next compound?
Short answer for Cc1ccc(COc2ccc3nn(C)c(C(=O)NC(C)(CO)C(N)=O)c3c2)cn1 (single isomer, unassigned) [Cpd 174 - En1] : IC50 was 1 to 20 µM

---

- Assay target: mouse TRPM3α2 (mTRPM3) ion channel (Mus musculus, UniProt J9SQF3)
- Protocol summary: TRPM3 ion channel driven Ca2+ uptake, Fluo-4 AM assay, mTRPM3alpha2 overexpressing flip-in HEK293 cells stimulated with pregnenolone sulfate (50 μM)
- Settings: mTRPM3 overexpressing HEK293 cells stimulated with pregnenolone sulfate (50 μM), activity ranges A, B, C
- Method: Monitoring the TRPM3 Ion Channel Driven Ca2+ Uptake. […] For mTRPM3, the intracellular Ca^2+ was measured with a Calcium responsive dye, Fluor-4 AM ester (Invitrogen). […] Channel inhibition was calculated compared to a non-PS stimulated control versus a condition stimulated with PS (50 μM) with vehicle. […]
pIC50: −log10 of the molar value.
Experimental endpoint: pIC50

Could you report pIC50 for every entry in the following list?
1. Cn1ccc(C(C)(CO)NC(=O)c2c3cc(OCc4ccccn4)ccc3nn2C)n1 (single isomer, unassigned) [Cpd 239 - En2]
2. Cn1nc2ccc(OCc3ccccn3)cc2c1C(=O)NC(CO)C(C(F)(F)F)C(F)(F)F (single isomer, unassigned) [Cpd 227 - En2]
3. Cn1nc2ccc(OCC3CC3)cc2c1C(=O)N[C@@H](CO)C(N)=O [Cpd 137]
4. Cc1ncc(COc2ccc3nn(C)c(C(=O)NC(C)(CO)CO)c3c2)o1 [Cpd 131]

Result:
["< 4.70", "< 4.70", "> 6.00", "4.70 to 6.00"]

---

I'd be grateful if you could share measured IC50 for these entries.
- Assay target: mouse TRPM3α2 (mTRPM3) ion channel (Mus musculus, UniProt J9SQF3)
- Protocol summary: TRPM3 ion channel driven Ca2+ uptake, Fluo-4 AM assay, mTRPM3alpha2 overexpressing flip-in HEK293 cells stimulated with pregnenolone sulfate (50 μM)
- Settings: mTRPM3 overexpressing HEK293 cells stimulated with pregnenolone sulfate (50 μM), activity ranges A, B, C

Below: 3 compounds and their reported IC50.
Compound	Value measured
Cn1nccc1COc1ccc2nn(C)c(C(=O)NC(C)(C)CO)c2c1	1 to 20 µM
Cn1nc2ccc(OCc3cccnc3C(F)(F)F)cc2c1C(=O)NC1(CCO)CCC1	1 to 20 µM
Cn1nc2ccc(OCc3ccccc3)cc2c1C(=O)NCC(C)(C)CO	1 to 20 µM

Considering Cn1nc2ccc(OCc3ccccn3)cc2c1C(=O)NC(CO)Cc1ncccn1 (single isomer, unassigned) [Cpd 243 - En1] , its IC50 with mouse TRPM3α2 (mTRPM3) ion channel (Mus musculus, UniProt J9SQF3) was recorded as > 20 µM

---

- Assay target: mouse TRPM3α2 (mTRPM3) ion channel (Mus musculus, UniProt J9SQF3)
- Construct: expressed in transfected cells; host or cells: flip-in HEK293
- Protocol summary: TRPM3 ion channel driven Ca2+ uptake, Fluo-4 AM assay, mTRPM3alpha2 overexpressing flip-in HEK293 cells stimulated with pregnenolone sulfate (50 μM)
- Format: cell-based
- Settings: mTRPM3 overexpressing HEK293 cells stimulated with pregnenolone sulfate (50 μM), activity ranges A, B, C
pIC50: −log10 of the molar value.
Experimental endpoint: pIC50

The following compounds have reported results that may help.
Compound	Value measured
Cn1nc2ccc(OCc3cccnc3C(F)(F)F)cc2c1C(=O)NCC1CCC(=O)N1 (stereo not shown) [Cpd 054]	4.70 to 6.00
Cn1nc2ccc(OCC3CCC3)cc2c1C(=O)NC(C)(CO)C(N)=O (single isomer, unassigned) [Cpd 173 - En2]	4.70 to 6.00
Cc1ncc(COc2ccc3nn(C)c(C(=O)N[C@@H](CO)C(N)=O)c3c2)o1 [Cpd 141]	> 6.00

Record pIC50 per entry; entries follow.
1. Cc1ncc(COc2ccc3nn(C)c(C(=O)NC4CCN(C)CC4)c3c2)s1 [Cpd 111]
2. Cn1nc2ccc(OCC3CCC3)cc2c1C(=O)NC1(CO)CCNC1=O (single isomer, unassigned) [Cpd 159 - En1]

Result:
["< 4.70", "4.70 to 6.00"]

---

- Assay target: mouse TRPM3α2 (mTRPM3) ion channel (Mus musculus)
- Protocol summary: TRPM3 ion channel driven Ca2+ uptake, Fluo-4 AM assay, mTRPM3alpha2 overexpressing flip-in HEK293 cells stimulated with pregnenolone sulfate (50 μM)
- Settings: mTRPM3 overexpressing HEK293 cells stimulated with pregnenolone sulfate (50 μM), activity ranges A, B, C
pIC50: −log10 of the molar value.
Experimental endpoint: pIC50

Look over these answered cases.
Compound	Assay target	pIC50
Cc1ncsc1COc1ccc2nn(C)c(C(=O)NC(C)(CO)CC(F)F)c2c1 (single isomer, unassigned) [Cpd 182 - En2]	mouse TRPM3α2 (mTRPM3) ion channel (Mus musculus)	> 6.00
Cn1ccc(COc2ccc3nn(C)c(C(=O)NC(C)(CO)C(N)=O)c3c2)n1 (single isomer, unassigned) [Cpd 155 - En2]	mouse TRPM3α2 (mTRPM3) ion channel (Mus musculus)	4.70 to 6.00
Cc1ncsc1COc1ccc2nn(C)c(C(=O)NC3CNCC(F)(F)C3)c2c1 (single isomer, unassigned) [Cpd 213 - En1]	mouse TRPM3α2 (mTRPM3) ion channel (Mus musculus)	4.70 to 6.00
Cc1ncsc1COc1ccc2nn(C)c(C(=O)NC3CNCCC3(F)F)c2c1 (single isomer, unassigned) [Cpd 211 - En2]	mouse TRPM3α2 (mTRPM3) ion channel (Mus musculus)	> 6.00
Cn1nccc1COc1ccc2nn(C)c(C(=O)NCc3cccc(O)n3)c2c1	mouse TRPM3α2 (mTRPM3) ion channel (Mus musculus)	4.70 to 6.00

State the recorded pIC50 for every item in the following list.
1. Cc1ncsc1COc1ccc2nn(C)c(C(=O)NC(C)(C)CO)c2c1
2. Cn1nc2ccc(OCC3CCCC3)cc2c1C(=O)NC(C)(CO)CO

Result:
1: 4.70 to 6.00; 2: < 4.70

---

- Assay target: mouse TRPM3α2 (mTRPM3) ion channel (Mus musculus, UniProt J9SQF3)
- Protocol summary: TRPM3 ion channel driven Ca2+ uptake, Fluo-4 AM assay, mTRPM3alpha2 overexpressing flip-in HEK293 cells stimulated with pregnenolone sulfate (50 μM)
- Settings: mTRPM3 overexpressing HEK293 cells stimulated with pregnenolone sulfate (50 μM), activity ranges A, B, C
Experimental endpoint: IC50

See these solved cases before continuing.
Compound	IC50
Cn1nc2ccc(OCc3ccccn3)cc2c1C(=O)NC(CO)C(C(F)(F)F)C(F)(F)F (single isomer, unassigned) [Cpd 227 - En1]	< 1 µM
Cc1ncsc1COc1ccc2nn(C)c(C(=O)NC3CCN(C)CC3)c2c1 [Cpd 112]	> 20 µM

Quick one: give me IC50 for each item below, same order please.
1. Cn1ccc(C(CO)NC(=O)c2c3cc(OCc4ccccn4)ccc3nn2C)n1 (single isomer, unassigned) [Cpd 251 - En2]
2. Cc1ncsc1COc1ccc2nn(C)c(C(=O)NC3COCC3O)c2c1 (single isomer, unassigned) [Cpd 080 - Dia2]

Result:
> 20 µM
> 20 µM

For each of the compounds below, note its IC50.
1. Cn1nc2ccc(OCc3ccccn3)cc2c1C(=O)NC1CNCCC1(F)F (single isomer, unassigned) [Cpd 212 - En1]
2. Cn1nc2ccc(OCc3cccnc3C(F)(F)F)cc2c1C(=O)NCCN1CCOC1=O [Cpd 073]
3. CN(C)C(=O)C1(NC(=O)c2c3cc(OCc4cccnc4C(F)(F)F)ccc3nn2C)CCOC1 (single isomer, unassigned) [Cpd 186 - En2]
4. CN(C)C(=O)C(C)(CO)NC(=O)c1c2cc(OCc3cccnc3C(F)(F)F)ccc2nn1C (single isomer, unassigned) [Cpd 193 - En1]
5. O=C1NCCn2nc3ccc(OCc4ccccc4F)cc3c21 [Cpd 256]
6. Cn1nc2ccc(OCc3cccnc3C(F)(F)F)cc2c1C(=O)NC(C)(CO)CC(F)F (single isomer, unassigned) [Cpd 202 - En1]
7. Cn1nc2ccc(OCC3CCOCC3)cc2c1C(=O)NC(C)(CO)C(N)=O (single isomer, unassigned) [Cpd 158 - En1]

Result:
["1 to 20 µM", "1 to 20 µM", "1 to 20 µM", "1 to 20 µM", "> 20 µM", "< 1 µM", "1 to 20 µM"]

Give measured IC50 for every item shown.
1. Cn1nc2ccc(OCc3ccccn3)cc2c1C(=O)NC(CO)c1ccc(F)cc1 (single isomer, unassigned) [Cpd 220 - En1]
2. Cn1nc2ccc(OCc3cccnc3C(F)(F)F)cc2c1C(=O)NC1(CO)CCOCC1 [Cpd 029]
3. Cn1nc2ccc(OCc3ccccn3)cc2c1C(=O)NC(CO)Cn1ccnc1C(F)(F)F (stereo not drawn) [Cpd 242]
4. Cn1nc2ccc(OCc3cccnc3C(F)(F)F)cc2c1C(=O)NC(C)(CO)CC(F)F (single isomer, unassigned) [Cpd 202 - En2]
5. Cc1ncsc1COc1ccc2nn(C)c(C(=O)NCC3(N(C)C)CCC3)c2c1 [Cpd 072]
6. Cn1nc2ccc(OCc3ccccc3C(F)F)cc2c1C(=O)NC1(CO)CCNC1=O (single isomer, unassigned) [Cpd 176 - En2]
7. CN1CCC(NC(=O)c2c3cc(OCc4ccccc4F)ccc3nn2C)CC1 [Cpd 093]
8. Cn1nc2ccc(OCc3ccccn3)cc2c1C(=O)NC1CNCCC1(F)F (single isomer, unassigned) [Cpd 212 - En2]

Result:
["> 20 µM", "1 to 20 µM", "> 20 µM", "< 1 µM", "1 to 20 µM", "1 to 20 µM", "1 to 20 µM", "> 20 µM"]
